Measured tissue uptake at 4 h accompanies every entry in the list below.
# test.method.notes: Biodistribution of 177Lu-labeled αMSH analogues in mice bearing B16F10 mouse melanoma
# Type: in vivo, C57BL/6J mice
# experimental.setup: male, mouse, testes, iv, total radioactivity; 4 h p.i., C57BL/6J mice, B16F10 melanoma; read-out: Biodistribution, Testes
Write down the numeric answer in %ID/g and omit the unit.

Use the examples below as a reference point.
What the record says about CCCC[C@H](NC(=O)CN1CCC(NC(=O)CN2CCN(CC(=O)O)CCN(CC(=O)O)CCN(CC(=O)O)CC2)CC1)C(=O)N[C@H]1CC(=O)NCCCC[C@@H](C(N)=O)NC(=O)[C@H](Cc2c[nH]c3ccccc23)NC(=O)[C@H](CCCNC(=N)N)NC(=O)[C@@H](Cc2ccccc2)NC(=O)[C@H](Cc2c[nH]cn2)NC1=O [^177Lu-labeled CCZ01048, metal not drawn, reference compound] : tissue uptake at 4 h is 0.16

What the record says about CCCC[C@H](NC(=O)CN1CCC(NC(=O)CN2CCN(CC(=O)O)CCN(CC(=O)O)CCN(CC(=O)O)CC2)CC1)C(=O)N[C@H]1CC(=O)NCCCC[C@@H](C(N)=O)N(C)C(=O)[C@H](Cc2c[nH]c3ccccc23)NC(=O)[C@H](CCCNC(=N)N)N(C)C(=O)[C@@H](Cc2ccccc2)NC(=O)[C@H](Cc2c[nH]cn2)NC1=O [^177Lu-labeled CCZ01106, metal not drawn] : tissue uptake at 4 h is 0.04

// next item, tissue uptake at 4 h requested
What the record says about CCCC[C@H](NC(=O)CN1CCC(NC(=O)[C@H](CCCCNC(=O)CN2CCN(CC(=O)O)CCN(CC(=O)O)CCN(CC(=O)O)CC2)NC(=O)[C@H](CCC(=O)O)NC(=O)CCCc2ccc(I)cc2)CC1)C(=O)N[C@H]1CC(=O)NCCCC[C@@H](C(N)=O)NC(=O)[C@H](Cc2c[nH]c3ccccc23)NC(=O)[C@H](CCCNC(=N)N)NC(=O)[C@@H](Cc2ccccc2)NC(=O)[C@H](Cc2c[nH]cn2)NC1=O [^177Lu-labeled CCZ01082, metal not drawn] : tissue uptake at 4 h is 0.75

---

Measured tissue uptake at 4 h accompanies every entry in the list below.
# test.method.notes: Biodistribution of 177Lu-labeled αMSH analogues in mice bearing SK-MEL-1 human melanoma
# experimental.setup: male, NRG (NOD.Cg-Rag1tm1Mom Il2rgtm1Wjl/SzJ), mouse, liver, total radioactivity
Write down the numeric answer in %ID/g and omit the unit.

Use the examples below as a reference point.
What the record says about CCCC[C@H](NC(=O)CN1CCC(NC(=O)[C@H](CCCCNC(=O)CN2CCN(CC(=O)O)CCN(CC(=O)O)CCN(CC(=O)O)CC2)NC(=O)[C@H](CCC(=O)O)NC(=O)CCCc2ccc(I)cc2)CC1)C(=O)N[C@H]1CC(=O)NCCCC[C@@H](C(N)=O)N(C)C(=O)[C@H](Cc2c[nH]c3ccccc23)NC(=O)[C@H](CCCNC(=N)N)N(C)C(=O)[C@@H](Cc2ccccc2)NC(=O)[C@H](Cc2c[nH]cn2)NC1=O [^177Lu-labeled CCZ01118, metal not drawn] : tissue uptake at 4 h is 5.77

What the record says about CCCC[C@H](NC(=O)CN1CCC(NC(=O)[C@H](CCCCNC(=O)CN2CCN(CC(=O)O)CCN(CC(=O)O)CCN(CC(=O)O)CC2)NC(=O)CNC(=O)CCCc2ccc(-c3ccc(C)cc3)cc2)CC1)C(=O)N[C@H]1CC(=O)NCCCC[C@@H](C(N)=O)N(C)C(=O)[C@H](Cc2c[nH]c3ccccc23)NC(=O)[C@H](CCCNC(=N)N)N(C)C(=O)[C@@H](Cc2ccccc2)NC(=O)[C@H](Cc2c[nH]cn2)NC1=O [^177Lu-labeled CCZ01158, metal not drawn] : tissue uptake at 4 h is 6.37

Next:
What the record says about CCCC[C@H](NC(=O)CN1CCC(NC(=O)[C@H](CCCCNC(=O)CN2CCN(CC(=O)O)CCN(CC(=O)O)CCN(CC(=O)O)CC2)NC(=O)CNC(=O)CCCc2ccc(I)cc2)CC1)C(=O)N[C@H]1CC(=O)NCCCC[C@@H](C(N)=O)N(C)C(=O)[C@H](Cc2c[nH]c3ccccc23)NC(=O)[C@H](CCCNC(=N)N)N(C)C(=O)[C@@H](Cc2ccccc2)NC(=O)[C@H](Cc2c[nH]cn2)NC1=O [^177Lu-labeled CCZ01148, metal not drawn] : tissue uptake at 4 h is 7.11

Hello, the source for this data is patent US11395857B2, in case you need it.
